molecular target: acetylcholine receptor; assay: SPR, AchR on chip, peptide 10 uM
Binding affinity (RU) values by entry
Dear colleague, please return just the value in RU, with no unit written.

binder: RVQRK [5mer-509]
measurement type: Binding affinity (RU)
measured result: 61

binder: KRILR [5mer-220]
measurement type: Binding affinity (RU)
measured result: 81

binder: RQFQR [5mer-204]
measurement type: Binding affinity (RU)
measured result: 84

binder: RLQRR [5mer-224]
measurement type: Binding affinity (RU)
measured result: 67

binder: RWLCK [5mer-14]
measurement type: Binding affinity (RU)
measured result: 63

query: Provide one value: measured Binding affinity (RU) of KQRYK [5mer-525]
result: 51

query: Dear colleague, please send me the reported Binding affinity (RU) for KGVCK [5mer-15] when you can.
result: 75

query: Supply Binding affinity (RU) value. Item: RRYCR [5mer-332]
result: 85

query: Consider the binder RRQQR [5mer-227] . State its measured Binding affinity (RU).
result: 84

query: For the binder KRYTR [5mer-542] , report Binding affinity (RU).
result: 85

query: Fill in reported Binding affinity (RU) for this entry: RVVQR [5mer-320]
result: 75

query: Identify the reported Binding affinity (RU) for the following entry. KLLSK [5mer-243]
result: 51

query: For the binder RWYCR [5mer-247] , report Binding affinity (RU).
result: 80

query: Assign Binding affinity (RU) to the following record: KSFYR [5mer-43]
result: 53

query: Name the recorded Binding affinity (RU) of the item KVVLK [5mer-546] in your answer.
result: 65

query: Specify Binding affinity (RU) for KVYQR [5mer-342] and stop.
result: 69

query: Note down Binding affinity (RU) recorded for KRQTK [5mer-348]
result: 80

query: Fill in reported Binding affinity (RU) for this entry: KGYRR [5mer-340]
result: 51

query: Look up and report measured Binding affinity (RU) for this entry: KQFQR [5mer-344]
result: 52

query: Let me know recorded Binding affinity (RU) for KSLTR [5mer-335] , thanks.
result: 56

query: Identify the reported Binding affinity (RU) for the following entry. RWYYK [5mer-513]
result: 83

query: For the binder KWYYR [5mer-323] , report Binding affinity (RU).
result: 77

query: Annotate the binder RGIQR [5mer-331] with its measured Binding affinity (RU).
result: 79

query: Assign Binding affinity (RU) to the following record: RQLTR [5mer-203]
result: 78

query: Check the records and state Binding affinity (RU) for RVYLR [5mer-48]
result: 62

query: Using the record for RVLLR [5mer-528] , state its measured Binding affinity (RU).
result: 50
